Target sequence: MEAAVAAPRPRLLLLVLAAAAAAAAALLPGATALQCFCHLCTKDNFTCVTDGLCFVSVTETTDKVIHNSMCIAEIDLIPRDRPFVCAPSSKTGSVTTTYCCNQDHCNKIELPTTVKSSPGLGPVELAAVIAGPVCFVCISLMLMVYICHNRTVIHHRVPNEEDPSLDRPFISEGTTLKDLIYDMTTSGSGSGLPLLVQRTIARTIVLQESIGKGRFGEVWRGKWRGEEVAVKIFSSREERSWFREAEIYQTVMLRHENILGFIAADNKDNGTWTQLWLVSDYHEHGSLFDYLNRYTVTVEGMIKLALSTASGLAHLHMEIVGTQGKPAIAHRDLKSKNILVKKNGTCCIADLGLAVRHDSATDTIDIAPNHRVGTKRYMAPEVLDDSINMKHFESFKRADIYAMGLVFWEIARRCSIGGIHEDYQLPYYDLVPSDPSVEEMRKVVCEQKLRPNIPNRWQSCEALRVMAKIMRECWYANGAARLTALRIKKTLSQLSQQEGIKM
pIC50: −log10 of the molar value.
propertyLabel: pIC50

So for `O=C(CCN(C1COC1)C1COC1)Nc1cc(N2CCOc3cnc(-c4cc(Cl)ccc4F)cc32)ccn1` , the logged pIC50 turned out to be > 9.00

All values here come from BindingDB's records for patent US20240116947.
